Listing of recorded pIC50 by entry.
Target chain: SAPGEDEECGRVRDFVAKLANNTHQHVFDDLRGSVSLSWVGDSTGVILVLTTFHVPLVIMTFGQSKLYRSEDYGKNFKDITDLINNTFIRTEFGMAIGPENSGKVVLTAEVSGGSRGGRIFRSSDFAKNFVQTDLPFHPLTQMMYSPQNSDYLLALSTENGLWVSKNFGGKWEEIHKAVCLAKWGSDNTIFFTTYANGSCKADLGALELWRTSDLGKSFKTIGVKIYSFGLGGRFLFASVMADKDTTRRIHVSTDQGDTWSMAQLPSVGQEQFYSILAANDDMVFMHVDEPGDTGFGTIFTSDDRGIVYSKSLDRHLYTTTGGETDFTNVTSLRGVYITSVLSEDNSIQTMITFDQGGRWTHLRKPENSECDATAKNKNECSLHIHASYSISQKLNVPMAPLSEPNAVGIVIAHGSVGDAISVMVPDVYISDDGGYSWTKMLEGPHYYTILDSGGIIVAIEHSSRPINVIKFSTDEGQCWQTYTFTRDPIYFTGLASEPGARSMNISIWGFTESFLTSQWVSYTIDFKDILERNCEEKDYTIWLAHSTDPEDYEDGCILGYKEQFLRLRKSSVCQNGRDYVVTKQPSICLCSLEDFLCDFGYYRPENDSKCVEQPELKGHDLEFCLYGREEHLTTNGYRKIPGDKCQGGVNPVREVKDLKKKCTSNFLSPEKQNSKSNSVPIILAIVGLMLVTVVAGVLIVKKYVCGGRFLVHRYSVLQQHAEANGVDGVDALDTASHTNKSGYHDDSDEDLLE
Please note pIC50 is a logarithmic value: minus log10 of concentration in mol/L. Answer with that number alone.

Q: Return pIC50 for the following compound: CC(C)(C)CC[C@H](NC(=O)c1ccc(Oc2ccccc2)nc1)C(=O)O (single isomer, unassigned)
Ans: 7.70

Q: Indicate the recorded pIC50 value for this compound: `CC(C)C[C@H](NC(=O)c1ccc(Cl)c(Cl)c1)C(=O)O`
Ans: 5.37

Q: Look up and state reported pIC50 for CC(C)(C)CC(NC(=O)c1cc(Cl)cc(Cl)c1)c1nn[nH]n1 (stereo not shown)
Ans: 5.16

Q: Report pIC50, nothing else, for this compound: `CC(C)C[C@H](NC(=O)c1cnc2ccccc2n1)C(=O)O`
Ans: 5.20
